Molecular target: T1, hRGMc-His (human, UniProt Q6ZVN8 36-400, limits assumed)
T1 construct: also called human RGMc; not shown: His tag
T1 sequence (looked up): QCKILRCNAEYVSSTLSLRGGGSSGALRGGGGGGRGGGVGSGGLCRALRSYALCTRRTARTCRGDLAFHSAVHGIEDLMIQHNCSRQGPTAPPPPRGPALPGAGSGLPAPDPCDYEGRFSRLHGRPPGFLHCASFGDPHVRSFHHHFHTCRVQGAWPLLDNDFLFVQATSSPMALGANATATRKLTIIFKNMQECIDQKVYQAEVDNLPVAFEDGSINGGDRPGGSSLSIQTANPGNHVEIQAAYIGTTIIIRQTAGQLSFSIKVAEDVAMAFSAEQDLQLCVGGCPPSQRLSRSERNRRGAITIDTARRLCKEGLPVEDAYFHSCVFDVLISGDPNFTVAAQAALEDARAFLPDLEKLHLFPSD
Assay: BIAcore binding

Binder	binding result
AE12-1-I (antibody, V domains shown, AE12-1 variant; IgG) VH: EVQLVQSGAEVKKPGASVKVSCKASGYTFTSHGISWVRQAPGQGLDWMGWISPYSGNTNYAQKLQGRVTMTTDTSTSTAYMELSSLRSEDTAVYYCARVGSGPYYYMDVWGQGTLVTVSS VL: QSALTQPRSVSGSPGQSVTISCTGTSSSVGDSIYVSWYQQHPGKAPKLMLYDVTKRPSGVPDRFSGSKSGNTASLTISGLQAEDEADYYCISYAGTDTLFGGGTKVTVL	no binding
AE12-1-L (antibody, V domains shown, AE12-1 variant; IgG; also called AE-12-L) VH: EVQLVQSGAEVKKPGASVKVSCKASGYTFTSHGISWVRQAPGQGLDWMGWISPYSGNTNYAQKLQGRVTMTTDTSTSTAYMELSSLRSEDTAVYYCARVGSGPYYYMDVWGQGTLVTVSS VL: QSALTQPRSVSGSPGQSVTISCTGTSSSVGDSIYVSWYQQHPGKAPKLMLYDVTKRPSGVPDRFSGSKSGNTASLTISGLQAEDEADYYCLSYAGTDTLFGGGTKVTVL	no binding
